Source: ChEMBL document CHEMBL2040835

UniProt:Q9YQ12 data, read-out pIC50
Sequence (Q9YQ12 whole entry): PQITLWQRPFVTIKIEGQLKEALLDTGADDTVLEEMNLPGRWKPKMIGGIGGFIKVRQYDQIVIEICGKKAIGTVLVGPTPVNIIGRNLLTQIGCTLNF
// scale note: pIC50 = -log10(conc_M); give the bare number

Example results:
CC(C)CN(C[C@@H](O)[C@H](Cc1ccccc1)NC(=O)O[C@H]1CO[C@H]2OC[C@H](OCc3ccccc3)[C@H]21)S(=O)(=O)c1ccc(N)cc1 :: 8.46
CNc1nc2ccc(S(=O)(=O)N(CC(C)C)C[C@@H](O)[C@H](Cc3ccccc3)NC(=O)O[C@H]3CO[C@H]4OC[C@H](OCCOC)[C@H]43)cc2o1 :: 8.82
COCCO[C@H]1CO[C@@H]2OC[C@H](OC(=O)N[C@@H](Cc3ccccc3)[C@H](O)CN(CC(C)C)S(=O)(=O)c3ccc(N)cc3)[C@@H]21 :: 8.60

// switching to the query compound
Q. Short answer please: pIC50, UniProt:Q9YQ12, entry CC(C)CN(C[C@@H](O)[C@H](Cc1ccccc1)NC(=O)O[C@H]1CO[C@H]2OC[C@H](O)[C@H]21)S(=O)(=O)c1ccc(N)cc1
A. 8.54

----------
- Test system: Human immunodeficiency virus 1
- TEST_PROTOCOL: Selectivity index, ratio of EC50 for Human immunodeficiency virus 1 isolate M1 expressing protease L10I, M46I, I64V, I84V, L90M, I93L mutant to EC50 for Human immunodeficiency virus 1 3B expressing wild-type protease
- Format: functional
Ratio EC50 less than 2 is Criterion met; Ratio EC50 greater than or equal to 2 is Criterion not met.

CNc1nc2ccc(S(=O)(=O)N(CC(C)C)C[C@@H](O)[C@H](Cc3ccccc3)NC(=O)O[C@H]3CO[C@H]4OC[C@H](O)[C@H]43)cc2o1 :: Criterion met
CNc1nc2ccc(S(=O)(=O)N(CC(C)C)C[C@@H](O)[C@H](Cc3ccccc3)NC(=O)O[C@H]3CO[C@H]4OC[C@H](OCOC)[C@H]43)cc2o1 :: Criterion met
CNc1nc2ccc(S(=O)(=O)N(CC(C)C)C[C@@H](O)[C@H](Cc3ccccc3)NC(=O)O[C@H]3CO[C@H]4OCC[C@H]43)cc2o1 :: Criterion met
CNc1nc2ccc(S(=O)(=O)N(CC(C)C)C[C@@H](O)[C@H](Cc3ccccc3)NC(=O)O[C@H]3CO[C@H]4OC[C@H](OCc5cccc(F)c5)[C@H]43)cc2o1 :: Criterion met
CNc1nc2ccc(S(=O)(=O)N(CC(C)C)C[C@@H](O)[C@H](Cc3ccccc3)NC(=O)O[C@H]3CO[C@H]4OC[C@H](OCCOC)[C@H]43)cc2o1 :: Criterion met

Q. Determine if CNc1nc2ccc(S(=O)(=O)N(CC(C)C)C[C@@H](O)[C@H](Cc3ccccc3)NC(=O)O[C@H]3CO[C@H]4OC[C@H](OCc5ccc(F)cc5)[C@H]43)cc2o1 shows Ratio EC50 strictly lower than 2.
A. Criterion met

Q. # check: Ratio EC50 < 2 for CNc1nc2ccc(S(=O)(=O)N(CC(C)C)C[C@@H](O)[C@H](Cc3ccccc3)NC(=O)O[C@H]3CO[C@H]4OC[C@H](OCc5ccccc5)[C@H]43)cc2o1
A. Criterion not met

Q. Take the compound CC(C)CN(C[C@@H](O)[C@H](Cc1ccccc1)NC(=O)O[C@H]1CO[C@H]2OC[C@H](OCc3ccccc3)[C@H]21)S(=O)(=O)c1ccc(N)cc1 and say whether its Ratio EC50 is less than 2.
A. Criterion not met
